Answer each item with its documented IC50.
- tested_system: HoblOBP3 (Holotrichia oblita, UniProt G9BWQ7)
- Sequence (G9BWQ7 entry or part of it): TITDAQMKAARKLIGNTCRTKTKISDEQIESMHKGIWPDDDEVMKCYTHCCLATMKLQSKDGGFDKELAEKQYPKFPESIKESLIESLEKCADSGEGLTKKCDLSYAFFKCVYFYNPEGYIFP
- protocol_notes: biochemical
- Format: binding

Worked examples, 3 molecules total:
{"molecule": "CC1=CC[C@@H](C(C)(C)O)CC1", "value_observed": "> 50 µM"}
{"molecule": "O=C/C=C/c1ccccc1", "value_observed": "46 µM"}
{"molecule": "CC(=O)CCC=C(C)C", "value_observed": "> 50 µM"}

Hey, quick one: what's IC50 for each of these?
1. CCCCCC=O
2. CCC/C=C/CO [trans-2-Hexenol]
3. C=C[C@](C)(O)CCC=C(C)C [R-(-)-Linalool]
4. CC(C)=CCC/C(C)=C/CO
5. CC1=CCC(O)(C(C)C)CC1 (stereo not drawn)
6. C=CCc1ccc(O)c(OC)c1

**A:**
["> 50 µM", "> 50 µM", "> 50 µM", "> 50 µM", "> 50 µM", "> 50 µM"]
